- Measured on: UniProt:Q9F663
- Sequence (Q9F663 25-293, looked up, species assumed): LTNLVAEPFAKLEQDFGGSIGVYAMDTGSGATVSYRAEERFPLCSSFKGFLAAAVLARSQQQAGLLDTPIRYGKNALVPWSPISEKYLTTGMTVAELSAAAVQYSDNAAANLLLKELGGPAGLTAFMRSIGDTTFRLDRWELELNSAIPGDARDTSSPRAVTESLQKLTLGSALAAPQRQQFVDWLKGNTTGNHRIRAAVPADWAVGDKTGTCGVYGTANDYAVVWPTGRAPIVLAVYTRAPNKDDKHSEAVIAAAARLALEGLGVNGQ
- Test summary: β-lactamase inhibitory activity, spectrophotometric nitrocefin assay
- Assay type: biochemical
- Conditions: nitrocefin as substrate
Property: IC50 (µM)

Chemical string	Measured number
CC(=O)NNC(=O)[C@@H]1CC[C@@H]2CN1C(=O)N2OS(=O)(=O)O	0.091

###

- Test system: E.coli JMI 4103
- Test summary: MIC, antibacterial and synergistic activity
- Assay type: cell-based
- Conditions: Escherichia coli, JMI4103; E.coli JMI 4103 (KPC-2, Tem-1, CMY-Type); substance alone

Compound	Reported relation	MIC (µg/mL)
O=C(NNC(=O)[C@H]1CC[C@H]2CN1C(=O)N2OS(=O)(=O)O)C1CC1 (stereo in doubt) [Ex. 7]	=	2
O=C(NO[C@H]1CCNC1)[C@@H]1CC[C@@H]2CN1C(=O)N2OS(=O)(=O)O [Ex. 1]	=	16
CC(C)(O/N=C(\C(=O)N[C@@H]1C(=O)N2C(C(=O)[O-])=C(C[n+]3ccccc3)CS[C@H]12)c1csc(N)n1)C(=O)O [Ceftazidime, ceftazidime, reference compound]	>	512
NCCONC(=O)[C@@H]1CC[C@@H]2CN1C(=O)N2OS(=O)(=O)O [Ex. 3]	=	4
C[C@@H](O)[C@H]1C(=O)N2C(C(=O)O)=C(S[C@@H]3CN[C@H](C(=O)N(C)C)C3)[C@H](C)[C@H]12 [Meropenem, meropenem, reference compound]	=	64
O=C(NO[C@H]1CCCNC1)[C@@H]1CC[C@@H]2CN1C(=O)N2OS(=O)(=O)O [Ex. 2]	=	8
CCC(=O)NNC(=O)[C@@H]1CC[C@@H]2CN1C(=O)N2OS(=O)(=O)O [Ex. 8]	=	4
O=C(NNC(=O)[C@H]1CC[C@H]2CN1C(=O)N2OS(=O)(=O)O)C1CNC1 (stereo in doubt) [Ex. 9]	=	16
CC(=O)NNC(=O)[C@@H]1CC[C@@H]2CN1C(=O)N2OS(=O)(=O)O [Ex. 5]	=	8
C[C@H]1[C@H](NC(=O)/C(=N\OC(C)(C)C(=O)O)c2csc(N)n2)C(=O)N1S(=O)(=O)O [Aztreonam, aztreonam, reference compound]	>	512

###

Let's look at some compounds and their measured MIC Ceftazidime + inhibitor.
- Test system: E. coli JMI 2671
- Test summary: MIC, antibacterial and synergistic activity
- Format: cell-based
- Conditions: E. coli JMI 2671 (VIM-19 (Cpase)); Ceftazidime + inhibitor at 4 µg/mL

Compound	MIC Ceftazidime + inhibitor / µg/mL
CCC(=O)NNC(=O)[C@@H]1CC[C@@H]2CN1C(=O)N2OS(=O)(=O)O	0.5
O=C(NO[C@H]1CCNC1)[C@@H]1CC[C@@H]2CN1C(=O)N2OS(=O)(=O)O	2
O=C(NO[C@H]1CCCNC1)[C@@H]1CC[C@@H]2CN1C(=O)N2OS(=O)(=O)O	0.5
O=C(NNC(=O)[C@H]1CC[C@H]2CN1C(=O)N2OS(=O)(=O)O)C1CC1 (stereo in doubt)	0.5

###

Let's look at some molecules and their measured MIC Meropenem + inhibitor.
- Tested on: K. pneumo JMI 2681
- Test summary: MIC, antibacterial and synergistic activity
- Type: cell-based
- Conditions: K. pneumo JMI 2681 (Oxa-48 (Cpase)); Meropenem + inhibitor at 4 µg/mL

Molecule	Measured on	Reported relation	MIC Meropenem + inhibitor / µg/mL
NCCONC(=O)[C@@H]1CC[C@@H]2CN1C(=O)N2OS(=O)(=O)O [Ex. 3]	K. pneumo JMI 2681	=	0.5
O=C(NO[C@H]1CCNC1)[C@@H]1CC[C@@H]2CN1C(=O)N2OS(=O)(=O)O [Ex. 1]	K. pneumo JMI 2681	>	2
CC(=O)NNC(=O)[C@@H]1CC[C@@H]2CN1C(=O)N2OS(=O)(=O)O [Ex. 5]	K. pneumo JMI 2681	=	2
O=C(NNC(=O)[C@H]1CC[C@H]2CN1C(=O)N2OS(=O)(=O)O)C1CC1 (stereo in doubt) [Ex. 7]	K. pneumo JMI 2681	=	0.25

###

- Tested on: P. aerug JMI 149
- Test summary: MIC, antibacterial and synergistic activity
- Assay type: cell-based
- Conditions: P. aerug JMI 149 (Bla+++D+); Ceftazidime + inhibitor at 4 µg/mL

Compound	MIC Ceftazidime + inhibitor
CCC(=O)NNC(=O)[C@@H]1CC[C@@H]2CN1C(=O)N2OS(=O)(=O)O [Ex. 8]	>16 µg/mL
CC(=O)NNC(=O)[C@@H]1CC[C@@H]2CN1C(=O)N2OS(=O)(=O)O [Ex. 5]	>16 µg/mL
O=C(NNC(=O)[C@H]1CC[C@H]2CN1C(=O)N2OS(=O)(=O)O)C1CC1 (stereo in doubt) [Ex. 7]	>16 µg/mL

###

- Test system: K.pneumo JMI 4109
- Test summary: MIC, antibacterial and synergistic activity
- Format: cell-based
- Conditions: K.pneumo JMI 4109 (SHV-1, SHV-12); Aztreonam + inhibitor at 4 µg/mL
- Method: In the Tables 10 - 12, compounds herein disclosed were tested in combination with various antibiotics against metallo β-lactamase producing bacteria. Table 3: Synergy of the inhibitor Ex. 1 (4 µg/mL) in combination with antibiotics

Compound	Measured on	MIC Aztreonam + inhibitor
O=C(NO[C@H]1CCNC1)[C@@H]1CC[C@@H]2CN1C(=O)N2OS(=O)(=O)O [Ex. 1]	K.pneumo JMI 4109	≤.062 µg/mL
O=C(NO[C@H]1CCCNC1)[C@@H]1CC[C@@H]2CN1C(=O)N2OS(=O)(=O)O [Ex. 2]	K.pneumo JMI 4109	≤.062 µg/mL
O=C(NNC(=O)[C@H]1CC[C@H]2CN1C(=O)N2OS(=O)(=O)O)C1CNC1 (stereo in doubt) [Ex. 9]	K.pneumo JMI 4109	≤0.06 µg/mL
CCC(=O)NNC(=O)[C@@H]1CC[C@@H]2CN1C(=O)N2OS(=O)(=O)O [Ex. 8]	K.pneumo JMI 4109	≤0.062 µg/mL
